system: OVCAR3 cells; test: MTT proliferation assay, OVCAR3; assay type: cell-based; details: 5 days compound exposure, 1:3 serial dilution starting at 10 μM;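 further: compound given as an 8- or 10-point series, one day after plating, with exposure covering roughly 3-4 cell doublings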
*1 amine or outer side, *2 acyl side, *3 side chain or, on linkers, in order; H or OH if unused. Where a SMILES comes first, the peptide text is derived from it. Bridges are numbered along the chain shown (N, C = ends). [ ]: non-standard residue; d: D form. The star is where a group is joined. X69 = CCOC(=O)N1CC=C(c2ccc(Cl)cc2C[C@@H](C(=O)[*:2])N(C)[*:1])CC1; X99 = CC(=O)N1CCC(Oc2ccc(Cl)cc2C[C@@H](C(=O)[*:2])N(C)[*:1])CC1; NMehhhLys(Me) = CN([C@@H](CCCCCCCN(C)[*:3])C(=O)[*:2])[*:1]; cBuCO(3,3-F2-1-CF3) = O=C(C1(C(F)(F)F)CC(F)(F)C1)*; X173 = CN([C@@H](Cc1cc(Cl)cs1)C(=O)[*:2])[*:1]; Pro(trans-4-F) = O=C(O)[C@@H]1C[C@@H](F)CN1; Gly(cPr) = N[C@H](C(=O)O)C1CC1
PARAMETER MEASURED: GI50 (µM)

# MOLECULE, STUDY TARGET, PARAMETER MEASURED, MEAS VALUE
rows = [
    ("CCOC(=O)N1CC=C(c2ccc(Cl)cc2C[C@H]2C(=O)N(C)CCCCCCC[C@H](N(C)C(=O)[C@@H](NC(=O)[C@@H]3C[C@@H](F)CN3C(=O)C3(C(F)(F)F)CC(F)(F)C3)C3CC3)C(=O)N[C@@H](CC(C)C)C(=O)N2C)CC1 [Example 145] ({cBuCO(3,3-F2-1-CF3)}-[Pro(trans-4-F)][Gly(cPr)][NMehhhLys(Me)]L[X69]; lactam 3-C)", "OVCAR3 cells", "GI50", 0.08),
    ("CC(C)C[C@@H]1NC(=O)[C@@H](N(C)C(=O)[C@@H](NC(=O)[C@@H]2C[C@@H](F)CN2C(=O)C2(C(F)(F)F)CC(F)(F)C2)C2CC2)CCCCCCCN(C)C(=O)[C@H](Cc2cc(Cl)cs2)N(C)C1=O [Example 426] ({cBuCO(3,3-F2-1-CF3)}-[Pro(trans-4-F)][Gly(cPr)][NMehhhLys(Me)]L[X173]; lactam 3-C)", "OVCAR3 cells", "GI50", 0.15),
    ("CC(=O)N1CCC(Oc2ccc(Cl)cc2C[C@H]2C(=O)N(C)CCCCCCC[C@H](N(C)C(=O)[C@@H](NC(=O)[C@@H]3C[C@@H](F)CN3C(=O)C3(C(F)(F)F)CC(F)(F)C3)C3CC3)C(=O)N[C@@H](CC(C)C)C(=O)N2C)CC1 [Example 243] ({cBuCO(3,3-F2-1-CF3)}-[Pro(trans-4-F)][Gly(cPr)][NMehhhLys(Me)]L[X99]; lactam 3-C)", "OVCAR3 cells", "GI50", 0.04),
]

* * *

Listing of entries alongside the reported GI50.
system: NCI-H1048 cells; assay: MTT proliferation assay, NCI-H1048; type: cell-based; conditions: 5 days compound exposure, 1:3 serial dilution starting at 10 μM
*1 amine or outer side, *2 acyl side, *3 side chain or, on linkers, in order; H or OH if unused. Where a SMILES comes first, the peptide text is derived from it. Bridges are numbered along the chain shown (N, C = ends). [ ]: non-standard residue; d: D form. The star is where a group is joined. NMe(hhhLys) = CN([C@@H](CCCCCCCN[*:3])C(=O)[*:2])[*:1]; X28 = CN([C@@H](Cc1cc(Cl)cnc1OC1CCC1)C(=O)[*:2])[*:1]; Cyclobutanecarbonyl(1-CF3) = O=C(C1(C(F)(F)F)CCC1)*; Pro(trans-4-F) = O=C(O)[C@@H]1C[C@@H](F)CN1; Gly(cPr) = N[C@H](C(=O)O)C1CC1

# MOLECULE, STUDY TARGET, UNIT LABEL, GI50
data = [
    ("CC(C)C[C@@H]1NC(=O)[C@@H](N(C)C(=O)[C@H](CCC(=O)N2CCN(C)CC2)NC(=O)[C@@H]2C[C@@H](F)CN2C(=O)C2(C(F)(F)F)CC(F)(F)C2)CCCCCCCN(C)C(=O)[C@H](Cc2cc(Cl)ccc2-c2ccc(N3CCOCC3)cc2)N(C)C1=O", "NCI-H1048 cells", "nM", 10),
    ("CC(C)C[C@@H]1NC(=O)[C@@H](N(C)C(=O)[C@@H](NC(=O)[C@@H]2C[C@@H](F)CN2C(=O)C2(C(F)(F)F)CCC2)C2CC2)CCCCCCCNC(=O)[C@H](Cc2cc(Cl)cnc2OC2CCC2)N(C)C1=O [Example 141] ({Cyclobutanecarbonyl(1-CF3)}-[Pro(trans-4-F)][Gly(cPr)][NMe(hhhLys)]L[X28]; lactam 3-C)", "NCI-H1048 cells", "nM", 90),
]

* * *

Listing of entries alongside the reported GI50.
tested on: NCI-H1048 cells; assay: MTT proliferation assay, NCI-H1048; assay type: cell-based; settings: 5 days compound exposure, 1:3 serial dilution starting at 10 μM;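 further: Dose-response in 96-well plates over 8 or 10 concentration points, with exposure spanning 3-4 cell doublings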
*1 amine or outer side, *2 acyl side, *3 side chain or, on linkers, in order; H or OH if unused. Where a SMILES comes first, the peptide text is derived from it. Bridges are numbered along the chain shown (N, C = ends). [ ]: non-standard residue; d: D form. The star is where a group is joined. X85 = CN([C@@H](Cc1cc(Cl)ccc1-c1ccc([C@]23CCOC[C@H]2C3)nc1)C(=O)[*:2])[*:1]; X72 = CN([C@@H](Cc1cc(Cl)ccc1-c1cnn(C2CCS(=O)(=O)C2)c1)C(=O)[*:2])[*:1]; NMehhhLys(Me) = CN([C@@H](CCCCCCCN(C)[*:3])C(=O)[*:2])[*:1]; cBuCO(3,3-F2-1-CF3) = O=C(C1(C(F)(F)F)CC(F)(F)C1)*; Pro(trans-4-F) = O=C(O)[C@@H]1C[C@@H](F)CN1; Gly(cPr) = N[C@H](C(=O)O)C1CC1

# COMPOUND, STUDY TARGET, GI50
data = [
    ("CC(C)C[C@@H]1NC(=O)[C@@H](N(C)C(=O)[C@@H](NC(=O)[C@@H]2C[C@@H](F)CN2C(=O)C2(C(F)(F)F)CC(F)(F)C2)C2CC2)CC=CCCCCNC(=O)[C@H](Cc2cc(Cl)ccc2C2=CCN(C)CC2)N(C)C1=O (single isomer, unassigned) [Example 56-P1]", "NCI-H1048 cells", "470 nM"),
    ("CC(C)C[C@@H]1NC(=O)[C@@H](N(C)C(=O)[C@@H](NC(=O)[C@@H]2C[C@@H](F)CN2C(=O)C2(C(F)(F)F)CC(F)(F)C2)C2CC2)CCCCCCCN(C)C(=O)[C@H](Cc2cc(Cl)ccc2-c2cnn(C3CCS(=O)(=O)C3)c2)N(C)C1=O (stereo partly drawn) [Example 253] ({cBuCO(3,3-F2-1-CF3)}-[Pro(trans-4-F)][Gly(cPr)][NMehhhLys(Me)]L[X72]; lactam 3-C)", "NCI-H1048 cells", "40 nM"),
    ("CC(C)C[C@@H]1NC(=O)[C@@H](N(C)C(=O)[C@@H](NC(=O)[C@@H]2C[C@@H](F)CN2C(=O)C2(C(F)(F)F)CC(F)(F)C2)C2CC2)CCCCCCCN(C)C(=O)[C@H](Cc2cc(Cl)ccc2-c2ccc([C@]34CCOC[C@H]3C4)nc2)N(C)C1=O [Example 369] ({cBuCO(3,3-F2-1-CF3)}-[Pro(trans-4-F)][Gly(cPr)][NMehhhLys(Me)]L[X85]; lactam 3-C)", "NCI-H1048 cells", "20 nM"),
]

* * *

Listing of entries alongside the reported IC50.
molecular target: CyclinE1/CDK2 (Homo sapiens); construct: purchased Eurofins, discovery 14-475; assay: Fluorescence Polarization (FP) competitive binding assay, Cyclin E1/Cdk2; conditions: 10 nM Cyclin E1/Cdk2, 2 nM FAM probe; average of 2-3 independent experiments; read-out: Cyclin E FP IC50;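 further: readings taken after two-hour equilibration at room temperature in HEPES buffer with NaCl, DTT, NP-40 and BSA, IC50 fitted from eight-concentration serial dilution series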
*1 amine or outer side, *2 acyl side, *3 side chain or, on linkers, in order; H or OH if unused. Where a SMILES comes first, the peptide text is derived from it. Bridges are numbered along the chain shown (N, C = ends). [ ]: non-standard residue; d: D form. The star is where a group is joined. X157 = CN([C@@H](Cc1cc(Cl)ccc1-c1ccc(S(=O)(=O)N2CCOCC2)cc1)C(=O)[*:2])[*:1]; X141 = CN([C@@H](Cc1cc(Cl)ccc1C1=CCN(S(C)(=O)=O)C1)C(=O)[*:2])[*:1]; NMehhhLys(Me) = CN([C@@H](CCCCCCCN(C)[*:3])C(=O)[*:2])[*:1]; cBuCO(3,3-F2-1-CF3) = O=C(C1(C(F)(F)F)CC(F)(F)C1)*; Pro(trans-4-F) = O=C(O)[C@@H]1C[C@@H](F)CN1; Gly(cPr) = N[C@H](C(=O)O)C1CC1

# COMPOUND, IC50 (µM)
rows = [
    ("CC(C)C[C@@H]1NC(=O)[C@@H](N(C)C(=O)[C@@H](NC(=O)[C@@H]2C[C@@H](F)CN2C(=O)C2(C(F)(F)F)CC(F)(F)C2)C2CC2)CCCCCCCN(C)C(=O)[C@H](Cc2cc(Cl)ccc2C2=CCN(S(C)(=O)=O)C2)N(C)C1=O [Example 309] ({cBuCO(3,3-F2-1-CF3)}-[Pro(trans-4-F)][Gly(cPr)][NMehhhLys(Me)]L[X141]; lactam 3-C)", 0.93),
    ("CC(C)C[C@@H]1NC(=O)[C@@H](N(C)C(=O)[C@@H](NC(=O)[C@@H]2C[C@@H](F)CN2C(=O)[C@@]2(C(F)(F)F)CCCCO2)C2CC2)C/C=C\\CCCCN(C)C(=O)[C@H](Cc2cc(Cl)ccc2-c2cnn(C)c2)N(C)C1=O [Example 174]", 0.1),
    ("CC(C)C[C@@H]1NC(=O)[C@@H](N(C)C(=O)[C@@H](NC(=O)[C@@H]2C[C@@H](F)CN2C(=O)C2(C(F)(F)F)CC(F)(F)C2)C2CC2)CCCCCCCN(C)C(=O)[C@H](Cc2cc(Cl)ccc2-c2ccc(S(=O)(=O)N3CCOCC3)cc2)N(C)C1=O [Example 354] ({cBuCO(3,3-F2-1-CF3)}-[Pro(trans-4-F)][Gly(cPr)][NMehhhLys(Me)]L[X157]; lactam 3-C)", 1.34),
]
